# Test system: Adeno-associated virus serotype 5 (AAV5) (AAV5)
# Protocol description: SPR, AAV amine-coupled to CM5 chip, nanobody 1-50 nM as analyte
Recorded kon by entry
Kindly answer with a numeric value in M⁻¹ s⁻¹, unit omitted.

For orientation, consider the following solved cases.
# Binder, Output unit, kon
records = [
    ("A4-T1 (A4-017 with a C-terminal 6xHis tag) (VHH) VHH: VQLQESGGGLVQPGGSLRLSCAASGSIFSINLMGWYRQAPGKQRELVATITRGGNTNYAGSVKGRFTISRDNAKNTVYLQMNSLRPEDTAVYYCHVDEVRQSSWTTSNLWGQGTQVTVSS", "M⁻¹ s⁻¹", 7200),
    ("A4-M1 (A4-017 with an N-terminal amino acid sequence MetAlaGln) (VHH) VHH: QVQLQESGGGLVQPGGSLRLSCAASGSIFSINLMGWYRQAPGKQRELVATITRGGNTNYAGSVKGRFTISRDNAKNTVYLQMNSLRPEDTAVYYCHVDEVRQSSWTTSNLWGQGTQVTVSS", "M⁻¹ s⁻¹", 5830),
    ("A4-T2 (A4-017 with a C-terminal GGGGS linker followed by a 6xHis tag) (VHH) VHH: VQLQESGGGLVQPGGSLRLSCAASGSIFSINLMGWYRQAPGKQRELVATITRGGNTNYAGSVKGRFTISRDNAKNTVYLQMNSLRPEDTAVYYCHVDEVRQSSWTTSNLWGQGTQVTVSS", "M⁻¹ s⁻¹", 6280),
    ("A4-M2 (A4-017 with an N-terminal methionine) (VHH) VHH: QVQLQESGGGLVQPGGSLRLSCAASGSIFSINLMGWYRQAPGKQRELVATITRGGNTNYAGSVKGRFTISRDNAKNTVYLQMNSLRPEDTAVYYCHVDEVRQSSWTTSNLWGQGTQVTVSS", "M⁻¹ s⁻¹", 4820),
]

# ---- query binder ----
Lookup: Annotate the binder A4-L1 (A4-017 with a C-terminal IgA hinge followed by a 6xHis tag) (VHH) VHH: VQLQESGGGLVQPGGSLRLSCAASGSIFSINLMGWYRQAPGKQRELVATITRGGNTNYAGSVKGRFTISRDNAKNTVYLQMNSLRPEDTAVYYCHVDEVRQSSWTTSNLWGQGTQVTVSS with its measured kon.
Found: 1620
